- studySystem: T1, human ERBB3 His tagged, monomeric (human, UniProt P21860 20-643, biotinylated in the Alphascreen assays (sites not given))
- T1 construct: Used unbiotinylated as Biacore analyte and biotinylated in Alphascreen; treated as one molecule; also called human ERBB3-His (Acrobiosystems); biotinylated monomeric human ERBB3
- assayExplanation: SPR (Biacore), captured IgG, monomeric ERBB3-His analyte
assayReadout: kon (M⁻¹ s⁻¹)
Only the number, expressed in M⁻¹ s⁻¹, is required.

| binder | units | kon |
| --- | --- | --- |
| 11H02 IgG1null (antibody, V domains shown, Human IgG1null and human Ckappa) VH: QVQLVESGGGLVKPGGSLRLSCAASGFTFSDYGMSWIRQAPGKGLEWVSTISDSGSYTYYADSVKGRFTISRDNAKNSLYLQMNSLRAEDTAVYYCAREWGDYDGFDNWGQGTLVTVSS VL: DIQMTQSPSSLSASVGDRVTITCRASQIISSYLSWYQQKPGKAPKLLIYAASSLDSGVPSRFSGSGSGTDFTLTISSLQPEDFATYYCLQYYSTPLTFGGGTKVEIK | M⁻¹ s⁻¹ | 6.1e+06 |
| 09H02 IgG1null (antibody, V domains shown, Human IgG1null and human Ckappa; also called 09HO2) VH: QVQLVESGGGLVKPGGSLRLSCAASGFTFSDYSMSWIRQAPGKGLEWVSTISDGGSYTYYPDSVKGRFTISRDNAKNSLYLQMNSLRAEDTAVYYCARELGDYDGFDYWGQGTLVTVSS VL: DIQMTQSPSSLSASVGDRVTITCRASQSISSYLSWYQQKPGKAPKLLIYAASSLQSGVPSRFSGSGSGTDFTLTISSLQPEDFATYYCLQYDSTPLTFGGGTKVEIK | M⁻¹ s⁻¹ | 3.1e+06 |
| MH3 IgG1null (antibody, V domains shown, Designer (Maximally Humanized) clone; Human IgG1null and human Ckappa) VH: QVQLVESGGGLVKPGGSLRLSCAASGFTFSDYSMSWIRQAPGKGLEWVSTISDSGSTIYYADSVKGRFTISRDNAKNSLYLQMNSLRAEDTAVYYCAREWGDYDGFDFWGQGTLVTVSS VL: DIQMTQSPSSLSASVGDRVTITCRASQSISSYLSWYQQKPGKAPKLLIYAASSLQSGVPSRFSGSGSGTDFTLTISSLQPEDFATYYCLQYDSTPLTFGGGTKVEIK | M⁻¹ s⁻¹ | 7.6e+06 |
| MH4 IgG1null (antibody, V domains shown, Designer (Maximally Humanized) clone; Human IgG1null and human Ckappa) VH: QVQLVESGGGLVKPGGSLRLSCAASGFTFSDYGMSWIRQAPGKGLEWVSTISDSGSYIYYADSVKGRFTISRDNAKNSLYLQMNSLRAEDTAVYYCAREWGDYDGFDEWGQGTLVTVSS VL: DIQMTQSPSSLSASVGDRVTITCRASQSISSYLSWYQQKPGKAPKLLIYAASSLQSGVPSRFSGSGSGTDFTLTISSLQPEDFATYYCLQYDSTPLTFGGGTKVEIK | M⁻¹ s⁻¹ | 1.1e+07 |
| 16B09 IgG1null (antibody, V domains shown, Human IgG1null (L234A, L235A, G237A) and human Ckappa) VH: QVQLVESGGGLVKPGGSLRLSCAASGFTFSDYSMSWIRQAPGKGLEWVSTISDSGTYTYYPDSVKGRFTISRDNAKNSLYLQMNSLRAEDTAVYYCAREWGDYDGFDFWGQGTLVTVSS VL: DIQMTQSPSSLSASVGDRVTITCRASQEISSYLSWYQQKPGKAPKLLIYAASTLQSGVPSRFSGSGSGTDFTLTISSLQPEDFATYYCLQYDSTPLTFGGGTKVEIK | M⁻¹ s⁻¹ | 1.6e+07 |
| h24C05 IgG1null (antibody, V domains shown, Human IgG1null (L234A, L235A, G237A) and human Ckappa; also called humanized 24C05) VH: QVQLVESGGGLVKPGGSLRLSCAASGFTFSDYAMSWIRQAPGKGLEWVSTISDGGTYTYYPDNVKGRFTISRDNAKNSLYLQMNSLRAEDTAVYYCAREWGDYDGFDYWGQGTLVTVSS VL: DIQMTQSPSSLSASVGDRVTITCRASQEISGYLSWFQQKPGKAPKSLIYAASTLDSGVPSRFSGSGSGTDFTLTISSLQPEDFATYYCLQYDSYPYTFGGGTKVEIK | M⁻¹ s⁻¹ | 2.5e+07 |
| 15E02 IgG1null (antibody, V domains shown, Human IgG1null and human Ckappa) VH: QVQLVESGGGLVKPGGSLRLSCAASGFTFSDYGMSWIRQAPGKGLEWVSTISDSGTTIYYADNVKGRFTISRDNAKNSLYLQMNSLRAEDTAVYYCAREYGDYDGFDYWGQGTLVTVSS VL: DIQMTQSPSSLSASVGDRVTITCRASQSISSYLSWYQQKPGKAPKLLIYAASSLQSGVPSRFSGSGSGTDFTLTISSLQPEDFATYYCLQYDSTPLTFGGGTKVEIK | M⁻¹ s⁻¹ | 6.3e+06 |
| MH5 IgG1null (antibody, V domains shown, Designer (Maximally Humanized) clone; Human IgG1null and human Ckappa) VH: QVQLVESGGGLVKPGGSLRLSCAASGFTFSDYGMSWIRQAPGKGLEWVSTISDSGSTIYYADSVKGRFTISRDNAKNSLYLQMNSLRAEDTAVYYCAREYGDYDGFDYWGQGTLVTVSS VL: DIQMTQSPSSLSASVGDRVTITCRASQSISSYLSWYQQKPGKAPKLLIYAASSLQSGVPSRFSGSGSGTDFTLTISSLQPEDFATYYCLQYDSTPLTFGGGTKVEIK | M⁻¹ s⁻¹ | 5.8e+06 |
| 15D03 IgG1null (antibody, V domains shown, Human IgG1null and human Ckappa) VH: QVQLVESGGGLVKPGGSLRLSCAASGFTFSDYGMSWIRQAPGKGLEWVSTISDSGSYIYYADSVKGRFTISRDNAKNSLYLQMNSLRAEDTAVYYCAREWGDYDGFDHWGQGTLVTVSS VL: DIQMTQSPSSLSASVGDRVTITCRASQEISSYLSWYQQKPGKAPKLLIYAASSLQSGVPSRFSGSGSGTDFTLTISSLQPEDFATYYCLQYDSTPLTFGGGTKVEIK | M⁻¹ s⁻¹ | 1.1e+07 |
| 17H10 IgG1null (antibody, V domains shown, Human IgG1null and human Ckappa) VH: QVQLVESGGGLVKPGGSLRLSCAASGFTFSDYGMSWIRQAPGKGLEWVSTISDGGSYTYYADSVKGRFTISRDNAKNSLYLQMNSLRAEDTAVYYCAREWGDYDGFDEWGQGTLVTVSS VL: DIQMTQSPSSLSASVGDRVTITCRASQSISGYLSWYQQKPGKAPKLLIYAASTLQSGVPSRFSGSGSGTDFTLTISSLQPEDFATYYCLQYDSTPYTFGGGTKVEIK | M⁻¹ s⁻¹ | 9.3e+06 |

// switching to the query binder
The recorded kon for entry 15D10 IgG1null (antibody, V domains shown, Human IgG1null (L234A, L235A, G237A) and human Ckappa) VH: QVQLVESGGGLVKPGGSLRLSCAASGFTFSDYGMSWIRQAPGKGLEWVSTISDGGSYTYYADNVKGRFTISRDNAKNSLYLQMNSLRAEDTAVYYCAREWGDYDGFDFWGQGTLVTVSS VL: DIQMTQSPSSLSASVGDRVTITCRASQSISSYLSWYQQKPGKAPKLLIYAASTLQSGVPSRFSGSGSGTDFTLTISSLQPEDFATYYCLQYDSTPLTFGGGTKVEIK equals 1.4e+07
